Source listed as ChEMBL document CHEMBL2029221.

- Target Or System: Peptide deformylase (Streptococcus pneumoniae serotype 4 (strain ATCC BAA-334 / TIGR4), UniProt Q9F2F0)
- Sequence (Q9F2F0 whole entry): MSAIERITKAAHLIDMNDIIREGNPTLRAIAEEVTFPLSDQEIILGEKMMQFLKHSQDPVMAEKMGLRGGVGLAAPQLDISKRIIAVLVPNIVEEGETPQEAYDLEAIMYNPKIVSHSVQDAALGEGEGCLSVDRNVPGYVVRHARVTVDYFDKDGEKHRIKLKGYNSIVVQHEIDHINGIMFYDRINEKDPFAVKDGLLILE
- Test Description: Inhibition of Streptococcus pneumoniae PDF assessed as formate release from fMAS peptide substrate after 20 mins by formate dehydrogenase coupled assay
pIC50: −log10 of the molar value.
Outcome Measure: pIC50

Worked examples, 3 compounds total:
[
  {
    "Entry Smiles": "O=CN(O)C[C@@H](CC1CCCC1)C(=O)N1CCC[C@H]1C(=O)NC(=O)NCCCc1ccccc1",
    "Result": 9.72
  },
  {
    "Entry Smiles": "CNC(=O)NC(=O)[C@@H]1CCCN1C(=O)[C@H](CC1CCCC1)CN(O)C=O",
    "Result": 9.34
  },
  {
    "Entry Smiles": "O=CN(O)C[C@@H](CC1CCCC1)C(=O)N1CCC[C@H]1C(=O)NC(=O)NCCc1c[nH]cn1",
    "Result": 9.82
  }
]

I = O=CN(O)C[C@@H](CC1CCCC1)C(=O)N1CCC[C@H]1C(=O)NC(=O)NCCc1ccccc1
II = O=CN(O)C[C@@H](CC1CCCC1)C(=O)N1CCC[C@H]1C(=O)NC(=O)OC1CCC1
**Query** Pick one: I or II . Which has the bigger pIC50 number? Provide the label of your selected option as the answer.
**Result** I

====

- System: Haemophilus influenzae
- Test Description: Antibacterial activity against Haemophilus influenzae Q1 by broth microdilution method
- Format: functional
Outcome Measure: MIC (µg/mL)

1 = CC(C)CC(=O)NC(=O)[C@@H]1CCCN1C(=O)[C@H](CC1CCCC1)CN(O)C=O
2 = CCOC(=O)NC(=O)[C@@H]1CCCN1C(=O)[C@H](CC1CCCC1)CN(O)C=O
3 = O=CN(O)C[C@@H](CC1CCCC1)C(=O)N1CCC[C@H]1C(=O)NC(=O)C1CC1
**Query** // ascending sort on MIC for the entries above Please, when replying, give the labels in the order that was requested.
**Result** 3, 2, 1
(3: 0.125 µg/mL, 2: 0.25 µg/mL, 1: 0.5 µg/mL)

====

- Tested on: Haemophilus influenzae
- Test Description: Antibacterial activity against Haemophilus influenzae Q1 by broth microdilution method
- Type: functional
Outcome Measure: MIC (µg/mL)

[
  {
    "Entry Smiles": "O=CN(O)C[C@@H](CC1CCCC1)C(=O)N1CCC[C@H]1C(=O)NC(=O)NCc1ccccc1",
    "Outcome Measure": "MIC",
    "Unit Info": "µg/mL",
    "Result": 2
  },
  {
    "Entry Smiles": "CNC(=O)NC(=O)[C@@H]1CCCN1C(=O)[C@H](CC1CCCC1)CN(O)C=O",
    "Outcome Measure": "MIC",
    "Unit Info": "µg/mL",
    "Result": 0.25
  }
]

I = C=CCNC(=O)NC(=O)[C@@H]1CCCN1C(=O)[C@H](CC1CCCC1)CN(O)C=O
II = O=CN(O)C[C@@H](CC1CCCC1)C(=O)N1CCC[C@H]1C(=O)NC(=O)NCCc1ccncc1
III = CC(C)(C)OC(=O)NC(=O)[C@@H]1CCCN1C(=O)[C@H](CC1CCCC1)CN(O)C=O
IV = O=CN(O)C[C@@H](CC1CCCC1)C(=O)N1CCC[C@H]1C(=O)NC(=O)NC1CCC1
**Query** Please put the entries in order of rising MIC. Please, when replying, give the labels in the order that was requested.
**Result** III, IV, I, II
(III: 0.25 µg/mL, IV: 0.5 µg/mL, I: 1 µg/mL, II: 2 µg/mL)
